- testTarget: Cathepsin K (Homo sapiens)
- assayProtocol: Percentage inhibition of 10 uM Cbz-Phe-Arg-AMC binding to human cathepsin K at 12.6 uM by fluorescence assay
readout: inhibition (%)
Express it in %; write the number only.

// known answers, use as guide
INSERT INTO results (compound, measurednumber) VALUES
  ('CCCC[C@H](NC(=O)OC(C(C)C)C(C)C)C(=O)c1ccccc1', 2),
  ('CCCC[C@H](NC(=O)OC(Cc1ccccc1)C(C)C)C(=O)c1nc(C(=O)OCC)cs1 (some centres not stated)', 28),
  ('CCCC[C@H](NC(=O)OC(Cc1ccccc1)CC(C)C)C(=O)c1nc(C(=O)OCC)cs1 (some centres not stated)', 31),
  ('CCOC(=O)c1csc(C(=O)CNC(=O)[C@H](CC(C)C)NC(=O)OCc2ccccc2)n1', 20),
  ('CCOC(=O)c1csc(C(=O)CNC(=O)OC(CC)Cc2ccccc2)n1 (configuration not stated)', 0),
  ('CCOC(=O)c1csc(C(=O)CNC(=O)O[C@@H](C)CC2CCCCC2)n1', 0);

input: Given CCCC[C@H](NC(=O)O[C@@H](C)CC1CCCCC1)C(=O)c1nc(C)c(C(=O)OCC)s1 , state its recorded inhibition.
output: 10

* * *

- testTarget: UniProt:P43235
- Sequence (P43235 whole entry): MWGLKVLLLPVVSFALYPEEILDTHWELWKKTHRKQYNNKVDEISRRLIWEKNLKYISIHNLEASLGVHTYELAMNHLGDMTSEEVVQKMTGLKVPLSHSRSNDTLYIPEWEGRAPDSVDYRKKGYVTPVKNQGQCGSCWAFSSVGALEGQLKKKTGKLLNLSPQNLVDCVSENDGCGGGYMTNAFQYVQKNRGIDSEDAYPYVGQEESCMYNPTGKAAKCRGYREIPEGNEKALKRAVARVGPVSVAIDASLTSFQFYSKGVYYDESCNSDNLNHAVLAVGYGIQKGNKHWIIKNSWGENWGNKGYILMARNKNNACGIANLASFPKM
readout: pIC50
// pIC50 is dimensionless: -log10 of concentration (M)

INSERT INTO assay_data (itemsmiles, measurednumber) VALUES
  ('CCCC[C@H](NC(=O)[C@H](CC(C)C)NC(=O)OCc1ccccc1)C(=O)c1nc(C(=O)OCC)cs1', 4.89);

input: Given CCCC[C@H](NC(=O)O[C@@H](C)CC1CCCCC1)C(=O)c1nc(C(=O)OCC)cs1 , state its recorded pIC50.
output: 6.64

# credit: ChEMBL document CHEMBL1139588
